ASSAYED TARGET: Kelch-like ECH-associated protein 1 (Homo sapiens)
ASSAY METHOD TEXT: Keap1-Nrf2 protein-protein interaction inhibitors, primary screen, biochemical, fluorescence polarization, single point (AID 504523);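 also: human Keap1 Kelch domain with fluorescein labeled Nrf2 9mer peptide probe; 0% = neutral control wells and 100% = peptide positive control; higher means more block of Keap1 binding to Nrf2 peptide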
CONDITION DESCRIPTION: Keap1 Kelch-Nrf2 peptide fluorescence polarization, 1536-well; at 9.4 µM; active compounds read high
Hit rate of the full screen: of about 340,000 compounds, about 490 (0.14%) were called active. The entries come from a sample that favours actives as a whole.
VALUE TYPE: inhibition

The molecule listed as "CC(=O)Nc1ccc(S(=O)(=O)NNC(=O)CCc2ccccc2)cc1" has a reported inhibition of -9.19% (inactive)

The molecule listed as Brc1ccc(C2=CC(c3ccco3)n3ncnc3N2)cc1 (stereo not drawn) has a reported inhibition of 36.1% (active)

The molecule listed as "O=C(CCNc1n[nH]c(=O)[nH]c1=O)N/N=C\c1ccc(Br)cc1" has a reported inhibition of -2.4% (inactive)

====

ASSAYED TARGET: Kelch-like ECH-associated protein 1 (Homo sapiens)
ASSAY METHOD TEXT: Keap1-Nrf2 protein-protein interaction inhibitors, primary screen, biochemical, fluorescence polarization, single point (AID 504523);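 also: human Keap1 Kelch domain with fluorescein labeled Nrf2 9mer peptide probe; 0% = neutral control wells and 100% = peptide positive control; higher means more block of Keap1 binding to Nrf2 peptide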
CONDITION DESCRIPTION: Keap1 Kelch-Nrf2 peptide fluorescence polarization, 1536-well; at 9.4 µM; active compounds read high
Screen size: about 340,000 compounds; about 490 (0.14%) were called active. The sample holds actives, similar compounds and a random draw of the others, so the mix is not that of the screen.
VALUE TYPE: inhibition (%)
Write it as a number; the unit % goes unstated.

The molecule listed as O=C1CC(c2ccccc2)C(c2ccccc2)=NN1 (stereo not given) has a reported inhibition of -8.87

The molecule listed as C=C(C)C1CC=C(C)/C(=N\NC(=O)CNc2ccccc2OC)C1 (stereo not given) has a reported inhibition of 0.164

The molecule listed as "CCCN(CC(=O)Nc1ccccc1OC)C(=O)CCC(=O)c1ccc(F)cc1" has a reported inhibition of -3.76

The molecule listed as "COc1ccc(S(=O)(=O)Nc2ccccc2C(=O)N2CCCC2)cc1C" has a reported inhibition of -0.35

The molecule listed as "CSCC[C@H](NC(=O)NCCc1ccc(F)cc1)C(=O)O" has a reported inhibition of 1.87
